The origin of these recorded values is the supplement of paper PMC5908809.

- Test system: NK-YS (IL-2 2.5 ng/mL)
- protocolDescription: percent inhibition of viability; higher = more inhibition;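 note: normalised to DMSO-only wells as negative and benzethonium chloride as positive control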
- testContext: 72 h; 1000 nM
Quick reference: percent inhibition of viability of the listed items.
Quick note: give the figure in %, leave out the unit.

Guide cases for percent inhibition of viability, answers given:
compound="CC1(C)CCC(c2ccc(Cl)cc2)=C(CN2CCN(c3ccc(C(=O)NS(=O)(=O)c4ccc(N[C@H](CCN5CCOCC5)CSc5ccccc5)c(S(=O)(=O)C(F)(F)F)c4)cc3)CC2)C1 [Navitoclax] (max concentration tested 10000 nM)" obsvalue=99.3
compound="CC(C)[C@H](C(=O)Nc1ccc(C(=O)NO)cc1)c1ccccc1 [AR-42] (max concentration tested 10000 nM)" obsvalue=76.3
compound="CS(=O)(=O)N1CCN(Cc2cc3nc(-c4cccc5[nH]ncc45)nc(N4CCOCC4)c3s2)CC1 [Pictilisib] (max concentration tested 10000 nM)" obsvalue=27.4
compound="CCCCCCCCc1ccc(CCC(N)(CO)CO)cc1 [Fingolimod] (max concentration tested 10000 nM)" obsvalue=10.4
compound="COc1cccc2c1C(=O)c1c(O)c3c(c(O)c1C2=O)C[C@@](O)(/C(CO)=N/NC(=O)CCCCCN1C(=O)C=CC1=O)C[C@@H]3O[C@H]1C[C@H](N)[C@H](O)[C@H](C)O1 [Aldoxorubicin] (max concentration tested 1000 nM)" obsvalue=103

Now look at this entry.
# input If you can, please state the reported percent inhibition of viability value of Cc1ccc(Nc2nccc(N(C)c3ccc4c(C)n(C)nc4c3)n2)cc1S(N)(=O)=O [Pazopanib] (max concentration tested 10000 nM) .
# output 12.1

====

- Tested on: NKL (IL-2 2.5 ng/mL)
- protocolDescription: percent inhibition of viability; higher = more inhibition
- testContext: 72 h; 2.5 nM
measuredProperty: percent inhibition of viability
Please give the number followed by its unit.

Check out these entries, answers already filled in.
compound="Cc1cc([C@@H](C)Nc2ccccc2C(=O)O)c2nc(N3CCOCC3)cc(=O)n2c1 [AZD-6482] (max concentration tested 2500 nM)" obsvalue=2.45%
compound="O=C(NOCCO)c1ccc2cncn2c1Nc1ccc(I)cc1F [GDC-0623] (max concentration tested 2500 nM)" obsvalue=-3.61%
compound="C[C@@H]1CN(CC(=O)Nc2ccc3c(c2)Cc2cccc(-c4cc(=O)cc(N5CCOCC5)o4)c2S3)C[C@H](C)O1 (max concentration tested 25000 nM)" obsvalue=-13.9%
compound="COc1ccc2c(OCc3nnc4ccc(-c5ccccc5)nn34)ccnc2c1 [AMG-208] (max concentration tested 2500 nM)" obsvalue=-0.72%

// next entry
# input Bench note: what percent inhibition of viability did CC(=O)OC[C@H]1O[C@@H]([S-])[C@H](OC(C)=O)[C@@H](OC(C)=O)[C@@H]1OC(C)=O.CCP(CC)CC.[Au+] [Auranofin] (max concentration tested 2500 nM) show?
# output -9.31%

====

- Tested on: YT (IL-2 2.5 ng/mL)
- protocolDescription: percent inhibition of viability; higher = more inhibition
- testContext: 72 h; 25 nM
measuredProperty: percent inhibition of viability (%)
Give a bare numeral; the unit % is implied.

Example molecules with recorded percent inhibition of viability:
molecule="COc1ccc2c(OCc3nnc4ccc(-c5ccccc5)nn34)ccnc2c1 [AMG-208] (max concentration tested 2500 nM)" measuredproperty="percent inhibition of viability" unitdescriptor=% obsvalue=5.31
molecule="COC[C@H](NC(=O)c1cnc(C)s1)C(=O)N[C@@H](COC)C(=O)N[C@@H](Cc1ccccc1)C(=O)[C@@]1(C)CO1 [Oprozomib] (max concentration tested 2500 nM)" measuredproperty="percent inhibition of viability" unitdescriptor=% obsvalue=14.6
molecule="C[C@@H]1CN(CC(=O)Nc2ccc3c(c2)Cc2cccc(-c4cc(=O)cc(N5CCOCC5)o4)c2S3)C[C@H](C)O1 (max concentration tested 25000 nM)" measuredproperty="percent inhibition of viability" unitdescriptor=% obsvalue=-5.84

In the following, a different molecule is considered.
# input Find the measured percent inhibition of viability: item CC(C)Cn1cnc2c(N)nc3ccccc3c21 [Imiquimod] (max concentration tested 2500 nM) , target or system YT (IL-2 2.5 ng/mL).
# output 5.75
